Source of measurements: ChEMBL document CHEMBL4007505

SYSTEM UNDER TEST: Sodium-dependent noradrenaline transporter (Homo sapiens, UniProt P23975)
Sequence (P23975 whole entry): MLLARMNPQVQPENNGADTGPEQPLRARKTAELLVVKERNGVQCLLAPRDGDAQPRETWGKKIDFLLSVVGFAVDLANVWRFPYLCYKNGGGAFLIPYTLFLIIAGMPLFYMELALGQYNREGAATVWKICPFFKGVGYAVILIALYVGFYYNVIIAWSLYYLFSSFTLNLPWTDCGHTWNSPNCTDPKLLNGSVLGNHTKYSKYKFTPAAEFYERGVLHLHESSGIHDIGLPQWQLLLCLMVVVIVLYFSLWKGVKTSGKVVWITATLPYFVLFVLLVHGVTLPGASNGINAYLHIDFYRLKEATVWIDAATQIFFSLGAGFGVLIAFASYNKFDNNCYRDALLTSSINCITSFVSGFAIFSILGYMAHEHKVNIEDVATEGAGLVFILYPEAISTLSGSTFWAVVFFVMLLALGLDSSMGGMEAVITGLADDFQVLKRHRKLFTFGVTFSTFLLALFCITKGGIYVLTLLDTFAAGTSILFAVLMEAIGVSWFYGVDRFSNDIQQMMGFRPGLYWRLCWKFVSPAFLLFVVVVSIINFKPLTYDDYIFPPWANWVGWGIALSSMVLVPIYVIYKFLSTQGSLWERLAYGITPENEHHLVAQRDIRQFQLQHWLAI
TEST DETAILS: Inhibition of recombinant human NET expressed in HEK293 […] assessed as reduction in [3H]-norepinephrine uptake incubated for 22 mins by micro beta scintillation counting analysis
pIC50: −log10 of the molar value.
Readings of pIC50 for the listed compounds

COMPOUND | RELATION QUALIFIER | pIC50
CNc1nc(C#Cc2ccc(Br)s2)nc2c1ncn2[C@H]1[C@H](O)[C@H](O)[C@]2(C(=O)OC)C[C@H]12 | = | 5.45
CNC(=O)[C@@]12C[C@@H]1[C@@H](n1cnc3c(NC)nc(C#Cc4ccc(Cl)s4)nc31)[C@H](O)[C@@H]2O | < | 5.00
OC1(c2ccc(Cl)cc2)c2ccccc2C2=NCCN21 (racemic) | = | 9.04
CNC(=O)[C@@]12C[C@@H]1[C@@H](n1cnc3c(NC)nc(C#Cc4ccc(Br)s4)nc31)[C@H](O)[C@@H]2O | = | 5.21

###

SYSTEM UNDER TEST: UniProtKB P13945
Sequence (P13945 whole entry): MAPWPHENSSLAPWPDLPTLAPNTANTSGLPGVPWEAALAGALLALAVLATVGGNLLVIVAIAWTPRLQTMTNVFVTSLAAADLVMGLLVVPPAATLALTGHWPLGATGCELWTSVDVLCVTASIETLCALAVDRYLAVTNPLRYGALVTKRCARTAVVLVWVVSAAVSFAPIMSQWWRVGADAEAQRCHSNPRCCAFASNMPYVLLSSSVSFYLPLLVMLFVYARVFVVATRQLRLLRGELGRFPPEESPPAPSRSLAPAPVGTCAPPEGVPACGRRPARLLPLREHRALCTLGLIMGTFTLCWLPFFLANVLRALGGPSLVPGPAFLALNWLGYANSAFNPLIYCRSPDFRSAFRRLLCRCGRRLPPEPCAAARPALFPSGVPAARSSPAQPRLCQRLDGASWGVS
pKi: −log10 of the molar value.

SMILES STRUCTURE | pKi
CCCNc1nc(C#Cc2ccc(Cl)s2)nc2c1ncn2[C@H]1[C@H](O)[C@H](O)[C@]2(C(=O)NC)C[C@H]12 | 5.84

###

Readings of Activity for the listed compounds
SYSTEM UNDER TEST: Sodium-dependent dopamine transporter (Homo sapiens, UniProt Q01959)
Sequence (Q01959 whole entry): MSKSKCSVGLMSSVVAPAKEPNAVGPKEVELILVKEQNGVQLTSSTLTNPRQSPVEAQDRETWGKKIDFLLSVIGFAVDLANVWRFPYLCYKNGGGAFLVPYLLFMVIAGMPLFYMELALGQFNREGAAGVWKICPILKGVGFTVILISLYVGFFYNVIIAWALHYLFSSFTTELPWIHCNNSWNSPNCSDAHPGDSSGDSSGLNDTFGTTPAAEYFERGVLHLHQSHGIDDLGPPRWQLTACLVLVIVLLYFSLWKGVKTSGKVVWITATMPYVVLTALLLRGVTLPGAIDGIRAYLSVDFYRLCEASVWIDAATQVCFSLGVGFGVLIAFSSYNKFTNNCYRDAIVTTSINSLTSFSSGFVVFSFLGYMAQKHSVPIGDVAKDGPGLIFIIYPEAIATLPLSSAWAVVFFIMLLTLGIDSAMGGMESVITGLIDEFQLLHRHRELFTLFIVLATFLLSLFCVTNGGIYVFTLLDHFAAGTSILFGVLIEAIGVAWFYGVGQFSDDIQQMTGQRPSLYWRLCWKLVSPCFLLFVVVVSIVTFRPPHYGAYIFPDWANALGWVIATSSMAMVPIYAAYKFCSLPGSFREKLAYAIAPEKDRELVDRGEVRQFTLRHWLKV
TEST DETAILS: Enhancing of [3H]WIN35,428 binding to recombinant human DAT expressed in HEK293 cell membranes at 10 uM pre-incubated for 10 mins before radioligand addition and measured 90 mins after radioligand addition by micro beta scintillation counting analysis relative to control

SMILES STRUCTURE | Activity
CNc1nc(C#Cc2ccc(Cl)s2)nc2c1ncn2[C@H]1[C@H](O)[C@H](O)[C@]2(C(=O)NCCN)C[C@H]12 | 136%
CNC(=O)[C@H]1O[C@@H](n2cnc3c(NC)nc(C#Cc4ccc(Cl)s4)nc32)[C@H](O)[C@@H]1O | 321%
CCCOC(=O)[C@@]12C[C@@H]1[C@@H](n1cnc3c(NC)nc(C#Cc4ccc(Cl)s4)nc31)[C@H](O)[C@@H]2O | 426%
CNC(=O)[C@@]12C[C@@H]1[C@@H](n1cnc3c(NC)nc(C#Cc4ccc(Cl)s4)cc31)[C@H](O)[C@@H]2O | 334%

###

SYSTEM UNDER TEST: Alpha-1D adrenergic receptor (Homo sapiens, UniProt P25100)
Sequence (P25100 whole entry): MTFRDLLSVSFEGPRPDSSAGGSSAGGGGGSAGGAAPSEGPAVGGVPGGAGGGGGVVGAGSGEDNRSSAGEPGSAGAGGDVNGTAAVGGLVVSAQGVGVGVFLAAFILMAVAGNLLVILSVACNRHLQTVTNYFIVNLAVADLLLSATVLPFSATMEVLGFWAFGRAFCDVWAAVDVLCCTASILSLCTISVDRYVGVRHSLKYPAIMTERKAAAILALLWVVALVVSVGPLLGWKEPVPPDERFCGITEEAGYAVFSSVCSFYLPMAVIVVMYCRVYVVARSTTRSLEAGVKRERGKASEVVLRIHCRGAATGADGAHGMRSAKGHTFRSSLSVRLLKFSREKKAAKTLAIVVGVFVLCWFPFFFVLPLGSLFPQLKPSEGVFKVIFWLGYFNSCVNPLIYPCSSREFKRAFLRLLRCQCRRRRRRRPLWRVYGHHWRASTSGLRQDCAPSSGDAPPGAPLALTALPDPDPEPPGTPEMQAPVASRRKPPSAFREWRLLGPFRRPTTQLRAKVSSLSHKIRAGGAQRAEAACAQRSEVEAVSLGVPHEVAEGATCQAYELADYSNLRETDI

SMILES STRUCTURE | Ki
CNc1nc(C#Cc2ccc(Cl)s2)nc2c1ncn2[C@@H]1O[C@H](C(=O)OC)[C@@H](O)[C@H]1O | > 10 µM
